Measured ELISA ratio coated/uncoated, listed per entry for reference.
targetOfAssay: T1, recombinant His6-tagged extracellular domain of human Clec4C (C-type lectin domain family 4, member C) (human, UniProt Q8WTT0 44-213)
T1 construct: Same antigen for immunisation, panning and ELISA; also called His-Clec4C(EC); pMET7-SIgK-His-Clec4C(EC)
T1 sequence: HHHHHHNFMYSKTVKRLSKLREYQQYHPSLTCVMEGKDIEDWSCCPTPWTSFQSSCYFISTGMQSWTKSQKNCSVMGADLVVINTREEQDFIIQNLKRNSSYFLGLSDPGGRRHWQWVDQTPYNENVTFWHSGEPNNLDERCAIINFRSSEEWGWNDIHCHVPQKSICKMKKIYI
assayExplanation: ELISA, antigen-coated vs uncoated blocked wells
A bare number is all that is needed in reply.

binder: 2CL34 (VHH, pMECS VHH-HA-His6; TG1 periplasmic extract) VHH: QVQLQESGGGLVQAGGSLRLSCAASGRTFTNYAMGWFRQAPGKEREFVATISRSGSMPYYADSVKGRFTISRDNAKNMVYLQMNSLKPEDTAVYYCAANVLVTTTRLDQYDSWGQGTQVTVSS
measurementName: ELISA ratio coated/uncoated
observed: 3.83
//
binder: 2CL84 (VHH, pMECS VHH-HA-His6; TG1 periplasmic extract) VHH: QVQLQESGGGSVQAGGSLRLSCAASGRTFSDYAMGWFRQAPGKEREFVATISKSGSSTDYADSAKGRFTISRDNAKKTVYLQINSLKTEDTAVYYCAARLSFDNTAFYTSAIRYSDWGQGTQVTVSS
measurementName: ELISA ratio coated/uncoated
observed: 18.2
//
binder: 2CL59 (VHH, pMECS VHH-HA-His6; TG1 periplasmic extract) VHH: QVQLQESGGGLVQPGDSLTLSCADSGRTFSNYAMGWFHQAPGKEREFVAAISTSGGSTAYADSVKGRFTISRDNAKNTVYLQMNNLKPEDTAVYYCAARLSFSGSSYYQGPLQYPYWGQGTQVTVSS
measurementName: ELISA ratio coated/uncoated
observed: 3.98

Measured ELISA ratio coated/uncoated of 2CL72 (VHH, pMECS VHH-HA-His6; TG1 periplasmic extract) VHH: QVQLQESGGGLVQPGGSLKLSCAASGSTFRHHAMAWFRQTPGKEREFVSAINDHGDRTKYLDSVRGRFTISRDNTDNMVYLQMSDLRPEDTAVYSCAAGPLVDYLETTPLVYTYWGQGTQVTVSS : 21.5
